- System: A549/ATCC NSCLC
- Procedure Summary: NCI-60 one-dose screen, 48 h (100 = growth as untreated, 0 = no growth, -100 = all killed)
- Condition Set: 10 µM unless noted
Compounds without any hit were thinned out: in the full panel of roughly 83,000, 20% have a hit.
In this section, each of the compounds is paired with its reported growth.
Quick note: give the figure in %, leave out the unit.

Reference set (3 entries):
O=C(CSc1nnc(Nc2ccccc2)s1)NCCc1ccc(F)cc1
124
COc1ccc2c(c1)nc(N)c1c3cc(C)c(C)cc3cn21
79.4
NC(N)=N/N=C(/c1ccccc1)c1ccc(Cl)cc1
68.3

With those in mind, consider the next compound.
Ask: Kindly indicate its recorded growth. Item: `COc1ccc(-c2cc(C(=O)Nc3nc4cc(C)c(C)cc4s3)nc3cc(-c4ccccc4)nn23)cc1OC`
Result: 94.5

###

- System: SK-MEL-28 melanoma
- Procedure Summary: NCI-60 one-dose screen, 48 h (100 = growth as untreated, 0 = no growth, -100 = all killed)
- Condition Set: 10 µM unless noted
The panel holds about 83,000 compounds, 20% with a hit somewhere; the sample as a whole holds those more often.
Measured Quantity: growth (%)
Quick note: give the figure in %, leave out the unit.

Reference set (3 entries):
COc1ccc(-c2csc(NC(=O)c3cc(O)c(O)c(O)c3)n2)cc1
89.1
O=C1CC(=O)N(c2ccccc2)O1
107
COc1ccc2nc3cc(Cl)ccc3c(Nc3cc(C(C)C)c(O)cc3C)c2c1
71.4

With those in mind, consider the next molecule.
Ask: Provide growth, tested on SK-MEL-28 melanoma, for `Nc1ccc2c(c1)/C(=N/O)c1cc([N+](=O)[O-])ccc1-2` .
Result: 102

###

In this section, each of the molecules is paired with its reported growth.
- System: T-47D breast
- Procedure Summary: NCI-60 one-dose screen, 48 h (100 = growth as untreated, 0 = no growth, -100 = all killed)
- Condition Set: 10 µM unless noted
The panel holds about 83,000 compounds, 20% with a hit somewhere; the sample as a whole holds those more often.
Quick note: give the figure in %, leave out the unit.

Oc1ccc(-c2nn(-c3ccccc3)cc2-c2nc3ccccc3s2)cc1
53
S=C(c1ccccc1)N1CCN(c2cccc(Cl)c2)CC1
96.9

Ask: Kindly indicate its recorded growth. Item: CC(CCC(=O)O)(NC(=O)c1ccc([N+](=O)[O-])cc1)C(=O)O (stereo not given)
Result: 93.7

Ask: Kindly indicate its recorded growth. Item: `C[n+]1c2ccccc2c(NC2CCNCC2)c2[nH]c3ccccc3c21`
Result: -9.19

Ask: Kindly indicate its recorded growth. Item: `Nc1ccc2c3c(cccc13)-c1ccccc1-2`
Result: 92.3

###

- Test system: RXF 393 renal
- Procedure Summary: NCI-60 one-dose screen, 48 h
- Condition Set: 10 µM unless noted
The panel holds about 83,000 compounds, 20% with a hit somewhere; the sample as a whole holds those more often. The source made the active and inactive calls. Rule for the calls: active = growth percent below 10; inactive = the rest.
Allowed answers: active, inactive

Worked set:
CCC1=C(c2ccc(OC)cc2)C(C)(C)Oc2cc(O)c(CN3CCCC3)cc21
inactive
O=C(Nc1cccc(-n2cc(-c3ccncc3)c(-c3ccc(O)c(Cl)c3)n2)c1)Nc1ccc(Cl)c(C(F)(F)F)c1
active
CC[N+](C)(CC)CCCC(C)Nc1ccnc2cc(Cl)ccc12 (configuration not stated)
inactive
CC(=O)c1nc2ccccc2n1CCn1cc(CC(N)C(=O)O)c2ccccc21 (configuration not stated)
inactive
CN(CC(=O)N(Cc1ccc(C2CCCCC2)cc1)c1ccc(C(=O)O)cc1)S(=O)(=O)c1c(F)c(F)c(F)c(F)c1F
active
COc1ccc2c(c1)C(=O)c1c-2c(OCCCN(C)C)nc2cc(Br)ccc12
inactive
NNC(=O)NO
inactive
COc1ccc(-n2nnc(C(=O)O)c2-c2cc(OC)c(OC)c(OC)c2)cc1
inactive

Ask: Which outcome was assigned to O=NC1CC=CCC1c1ccccc1 (configuration not stated) in this test?
Result: inactive

Ask: Which outcome was assigned to `CCCCCCCCCCC[C@@H](C[C@H]1OC(=O)[C@H]1CCCCCC)OC(=O)[C@@H](CC(C)C)NC=O` in this test?
Result: inactive

Ask: Which outcome was assigned to CCOc1cccc(C2CC(=O)Nc3cc4c(cc32)OCO4)c1 (configuration not stated) in this test?
Result: inactive

Ask: Which outcome was assigned to `COc1ccc(-c2oc3cc(O)c(OC)c(O)c3c(=O)c2OC)cc1O` in this test?
Result: active
